- Target Entity: Cynomolgus Factor P (cynomolgus)
- Assay Info: cell-based or functional assay
Quick rule: MAC Deposition, 20% Serum EC50 of at least 7 nM means Yes, below that means No.

{"Binder": "NVS962-T (Fab, V domains shown, NVS962 with heavy chain N30 replaced with threonine; also called NSV962-T) VH: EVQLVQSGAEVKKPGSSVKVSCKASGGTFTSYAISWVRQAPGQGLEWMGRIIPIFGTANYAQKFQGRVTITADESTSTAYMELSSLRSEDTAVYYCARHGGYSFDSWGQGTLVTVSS VL: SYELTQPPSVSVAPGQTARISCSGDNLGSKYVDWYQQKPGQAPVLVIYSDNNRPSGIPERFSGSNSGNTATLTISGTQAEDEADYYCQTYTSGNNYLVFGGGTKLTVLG", "Assigned Category": "No"}
{"Binder": "NVS806 (Fab, V domains shown) VH: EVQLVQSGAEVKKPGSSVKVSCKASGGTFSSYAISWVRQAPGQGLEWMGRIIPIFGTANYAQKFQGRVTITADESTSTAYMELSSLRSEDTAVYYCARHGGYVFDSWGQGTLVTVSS VL: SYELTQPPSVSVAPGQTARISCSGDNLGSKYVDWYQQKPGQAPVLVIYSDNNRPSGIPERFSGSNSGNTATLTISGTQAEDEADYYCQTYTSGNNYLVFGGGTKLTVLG", "Assigned Category": "No"}
{"Binder": "NVS808 (Fab, V domains shown) VH: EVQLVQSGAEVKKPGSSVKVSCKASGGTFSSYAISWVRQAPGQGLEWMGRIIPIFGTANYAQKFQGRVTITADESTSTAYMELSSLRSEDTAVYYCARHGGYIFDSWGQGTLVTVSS VL: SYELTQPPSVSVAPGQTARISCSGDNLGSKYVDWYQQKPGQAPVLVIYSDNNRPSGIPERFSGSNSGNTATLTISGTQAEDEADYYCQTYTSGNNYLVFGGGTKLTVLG", "Assigned Category": "Yes"}
{"Binder": "NVS962-Q (Fab, V domains shown, NVS962 with heavy chain N30 replaced with glutamine (deamidation site removed)) VH: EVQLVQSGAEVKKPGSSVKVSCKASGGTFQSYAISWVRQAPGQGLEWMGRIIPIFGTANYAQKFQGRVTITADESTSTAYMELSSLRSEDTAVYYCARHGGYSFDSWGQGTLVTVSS VL: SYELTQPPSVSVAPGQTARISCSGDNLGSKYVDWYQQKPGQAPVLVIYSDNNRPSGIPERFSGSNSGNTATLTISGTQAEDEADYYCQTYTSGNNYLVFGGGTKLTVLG", "Assigned Category": "Yes"}
{"Binder": "NVS809 (Fab, V domains shown) VH: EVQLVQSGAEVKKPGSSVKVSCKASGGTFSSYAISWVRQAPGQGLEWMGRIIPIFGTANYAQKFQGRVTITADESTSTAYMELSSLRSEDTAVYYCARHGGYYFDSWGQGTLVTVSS VL: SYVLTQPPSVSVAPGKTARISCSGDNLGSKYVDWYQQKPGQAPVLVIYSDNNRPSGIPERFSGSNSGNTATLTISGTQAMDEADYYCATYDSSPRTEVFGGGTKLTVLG", "Assigned Category": "No"}
{"Binder": "NVS807 (Fab, V domains shown) VH: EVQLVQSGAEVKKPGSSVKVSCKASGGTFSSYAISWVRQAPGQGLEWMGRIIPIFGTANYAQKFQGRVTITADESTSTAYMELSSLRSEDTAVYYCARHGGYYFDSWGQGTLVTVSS VL: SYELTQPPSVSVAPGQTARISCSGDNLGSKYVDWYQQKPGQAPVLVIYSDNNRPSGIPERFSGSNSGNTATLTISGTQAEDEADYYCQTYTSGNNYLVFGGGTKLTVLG", "Assigned Category": "No"}
